Attribution: patent US20230026271A1

- tested target: CPS1 (Homo sapiens, UniProt P31327)
- Construct: The full length, human CPS1 gene was cloned into pFastBac HTA; His6 (from the pFastBac HTA vector); made in house; host or cells: SF21 insect cells (baculovirus, Bac-to-bac)
- Sequence (P31327 39-1500): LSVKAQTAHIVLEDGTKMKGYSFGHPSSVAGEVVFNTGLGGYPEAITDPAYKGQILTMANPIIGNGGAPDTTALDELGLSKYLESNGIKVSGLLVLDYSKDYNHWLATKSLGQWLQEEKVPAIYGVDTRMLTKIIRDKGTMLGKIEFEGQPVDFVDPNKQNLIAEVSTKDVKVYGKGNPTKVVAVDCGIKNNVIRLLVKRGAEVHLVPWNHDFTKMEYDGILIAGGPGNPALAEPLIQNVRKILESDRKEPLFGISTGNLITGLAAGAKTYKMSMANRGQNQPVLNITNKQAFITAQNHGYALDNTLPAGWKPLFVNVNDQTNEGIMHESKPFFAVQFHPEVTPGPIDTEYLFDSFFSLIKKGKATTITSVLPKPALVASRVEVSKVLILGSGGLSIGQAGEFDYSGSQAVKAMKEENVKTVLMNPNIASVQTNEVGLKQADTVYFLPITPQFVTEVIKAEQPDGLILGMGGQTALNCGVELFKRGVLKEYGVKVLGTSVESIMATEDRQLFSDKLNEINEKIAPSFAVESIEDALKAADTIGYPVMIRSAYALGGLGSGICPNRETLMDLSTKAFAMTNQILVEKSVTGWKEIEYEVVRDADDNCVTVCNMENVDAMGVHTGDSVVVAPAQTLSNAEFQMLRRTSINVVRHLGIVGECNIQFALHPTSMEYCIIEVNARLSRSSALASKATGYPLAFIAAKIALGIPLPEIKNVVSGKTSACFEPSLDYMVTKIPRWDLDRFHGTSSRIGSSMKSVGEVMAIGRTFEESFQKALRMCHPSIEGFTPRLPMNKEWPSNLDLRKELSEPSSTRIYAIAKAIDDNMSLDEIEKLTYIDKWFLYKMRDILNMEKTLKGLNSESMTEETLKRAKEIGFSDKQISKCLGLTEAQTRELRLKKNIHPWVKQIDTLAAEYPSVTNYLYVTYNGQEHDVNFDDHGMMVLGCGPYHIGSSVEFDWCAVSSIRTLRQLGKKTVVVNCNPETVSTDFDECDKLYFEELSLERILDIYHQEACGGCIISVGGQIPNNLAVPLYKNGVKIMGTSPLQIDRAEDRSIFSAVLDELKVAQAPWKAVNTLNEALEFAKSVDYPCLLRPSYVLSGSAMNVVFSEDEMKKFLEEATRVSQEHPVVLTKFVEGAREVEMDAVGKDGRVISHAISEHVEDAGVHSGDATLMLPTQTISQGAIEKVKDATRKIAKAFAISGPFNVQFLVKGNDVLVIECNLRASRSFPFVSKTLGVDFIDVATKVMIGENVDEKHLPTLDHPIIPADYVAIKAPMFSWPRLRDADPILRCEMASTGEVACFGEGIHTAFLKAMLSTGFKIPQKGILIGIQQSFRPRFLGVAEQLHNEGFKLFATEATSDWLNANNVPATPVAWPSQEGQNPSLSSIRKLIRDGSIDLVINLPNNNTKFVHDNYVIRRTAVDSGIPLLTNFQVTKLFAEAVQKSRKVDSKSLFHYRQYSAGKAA
- protocol notes: ADP-Glo endpoint assay measuring the ATPase activity of CPS1
- Type: biochemical
- measurement context: geometric mean of a minimum of two values; 50 nM CPS1, 10 μM ATP, 0.2 mM NAG, 60 min at room temperature; read-out: ADPGlo IC50
For each entry below, report its IC50 value.
Field: numeric (µM). Do not append units.

Task: Given the entry COc1ccc(C(=O)N2C[C@@H](C)N(C(=O)c3ccc(OC)c(F)c3)[C@H](C)C2)c(F)c1 [Compound 29] , report its measured IC50.
Output: 2.3

Task: Given the entry COc1ccc(C(=O)N2[C@H](C)CN(C(=O)c3cc4ccccc4[nH]3)C[C@H]2C)c(F)c1 [Compound 59] , report its measured IC50.
Output: 5.58

Task: Given the entry COc1ccc(C(=O)N2C[C@@H](C)N(C(=O)c3ccc(OC)c(C)c3)[C@H](C)C2)c(F)c1 [Compound 79] , report its measured IC50.
Output: 22.2

Task: Given the entry COc1ccc(C(=O)N2[C@H](C)CN(C(=O)c3ccc4ccn(C)c4c3)C[C@H]2C)c(F)c1 [Compound 83] , report its measured IC50.
Output: 31

Task: Given the entry COc1ccc(C(=O)N2[C@H](C)CN(C(=O)c3ccc(C)cc3F)C[C@H]2C)c(F)c1 [Compound 14] , report its measured IC50.
Output: 2.2

Task: Given the entry COc1ccc(C(=O)N2[C@H](C)CN(C(=O)c3c[nH]c4c(C)cccc34)C[C@H]2C)c(F)c1 [Compound 56] , report its measured IC50.
Output: 3.28

Task: Given the entry COc1ccc(C(=O)N2C[C@@H](C)N(C(=O)c3ccc(C)cc3F)[C@H](C)C2)c(F)c1 [Compound 22] , report its measured IC50.
Output: 0.358

Task: Given the entry COc1ccc(C(=O)N2[C@H](C)CN(C(=O)c3ccc4c(c3)NC(=O)CO4)C[C@H]2C)c(F)c1 [Compound 35] , report its measured IC50.
Output: 7.97

Task: Given the entry COc1ccc(C(=O)N2C[C@@H](C)N(C(=O)c3ccc(Cl)cc3F)[C@H](C)C2)c(F)c1 [Compound 66] , report its measured IC50.
Output: 4.91

Task: Given the entry CCOc1ccc(C(=O)N2[C@H](C)CN(C(=O)c3ccc(OC)cc3F)C[C@H]2C)c(F)c1 [Compound 27] , report its measured IC50.
Output: 0.414

Task: Given the entry COc1ccc(C(=O)N2[C@H](C)CN(C(=O)c3ccc4c(c3)CCO4)C[C@H]2C)c(F)c1 [Compound 21] , report its measured IC50.
Output: 7.45

Task: Given the entry COc1ccc(C(=O)N2C[C@@H](C)N(C(=O)c3ccc(F)cc3F)[C@H](C)C2)c(F)c1 [Compound 32] , report its measured IC50.
Output: 1.44

Task: Given the entry COc1ccc(C(=O)N2[C@H](C)CN(C(=O)c3ccc(N(C)C)cc3F)C[C@H]2C)c(F)c1 [Compound 20] , report its measured IC50.
Output: 3.96

Task: Given the entry COc1ccc(C(=O)N2[C@H](C)CN(c3ncnc4cc(OC)ccc34)C[C@H]2C)c(F)c1 [Compound 62] , report its measured IC50.
Output: 10.5

Task: Given the entry COc1ccc(C(=O)N2C[C@@H](C)N(C(=O)c3ccc4cc(C)[nH]c4c3)[C@H](C)C2)c(F)c1 [Compound 43] , report its measured IC50.
Output: 11.4

Task: Given the entry COc1ccc(C(=O)N2C[C@@H](C)N(C(=O)c3cccc(O)c3F)[C@H](C)C2)c(F)c1 [Compound 75] , report its measured IC50.
Output: 16.1

Task: Given the entry COc1ccc(C(=O)N2C[C@@H](C)N(C(=O)c3ccc(OC)cc3)[C@H](C)C2)cc1 [Compound 63] , report its measured IC50.
Output: 4.74

Task: Given the entry COc1ccc(C(=O)N2[C@H](C)CN(C(=O)c3c(C)cc(OC)cc3F)C[C@H]2C)c(F)c1 [Compound 81] , report its measured IC50.
Output: 25.8

Task: Given the entry COc1ccc(C(=O)N2[C@H](C)CN(C(=O)c3c[nH]c4ccc(Cl)cc34)C[C@H]2C)c(F)c1 [Compound 61] , report its measured IC50.
Output: 7.39

Task: Given the entry COc1ccc(C(=O)N2[C@H](C)CN(C(=O)c3ccc(OC)c(F)c3F)C[C@H]2C)c(F)c1 [Compound 2] , report its measured IC50.
Output: 0.427

Task: Given the entry COc1ccc(C(=O)N2[C@H](C)CN(C(=O)c3ccc(OC(F)(F)F)cc3F)C[C@H]2C)c(F)c1 [Compound 1] , report its measured IC50.
Output: 0.672
